B1: Cytoplasmic polyadenylation element-binding protein 2, residues 513 to 575; numbered along this chain, Q7Z5Q1 (parent)
chain: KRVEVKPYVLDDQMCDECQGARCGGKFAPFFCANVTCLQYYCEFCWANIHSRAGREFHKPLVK

- Variants of: B1
- Protocol Details: abundance fitness (aPCA) (normalised: wild type 0, dead -1); higher = more abundant; growth selection in yeast, the domain comes from the species named
- Experimental Context: Homo sapiens
Each item that follows carries a reported abundance fitness.
// print number alone

>>> print(df.to_string())
                                biosequence  reported
0  KRVEVKPYVLDDQMCDECQGARCGGKFAPFFCANVTCLQYYCEFCWANIHSRAGREFHKPLSK    -0.081
1  KRVEVKPYVLDDQMCDECQGARCGGKFAPFFCANVTCLQYYCEFCWANIESRAGREFHKPLVK    -0.546

Entry under review: "KRVEVKPYVLDDQMCDECQGARCGGKFAPFFCANVTCLQYYCEFCWANIWSRAGREFHKPLVK" . Reported abundance fitness?
-0.784

Also "KRVEVKPYVLDDQMCDECQGARCGGKFAPFFCANVTCLQYYCEFCWANKHSRAGREFHKPLVK" , if possible.
-0.127
